Entry source: paper PMC5540273

tested on: PRKCE; settings: concentration: 1 μM, replicates: in singlicate; n = 1
Threshold-based label: %Inh under 10% gives Met, %Inh not under 10% gives Not met.

Solved cases (3 shown):
Cn1c(=O)c(F)c(Nc2ccc(I)cc2F)c2c(=O)n(OC[C@H](O)CO)cnc21    Met
CCS(=O)c1ccc(-c2coc3ccc(-c4nnc(C)o4)cc23)cc1 (stereo not shown)    Met
Nc1nc(N)c2nc(-c3ccccc3)[nH]c2n1    Met

query: Does the reported %Inh of CCCNC(=O)Nc1ccc(Oc2ncnc3ccn(C)c23)cc1 stay below 10%?
result: Met

query: Is %Inh strictly under 10% for the entry O=C(Nc1ccc2c(c1)OCO2)NC1CCN(c2ccnc(NCc3ccc(F)cc3)n2)CC1 ?
result: Met

query: Here's an entry: Nc1nc(-c2ccccc2F)c(-c2ccnc3ccccc23)s1 . Is its %Inh below 10%?
result: Not met

query: Given CCC(=O)c1c(-c2ccccc2)c2cc(Cl)ccc2c(=O)n1Cc1cc(C(=O)NC2CC2)n(C)n1 , is recorded %Inh strictly lower than 10%?
result: Not met

query: Say whether its %Inh is strictly beneath 10%. Entry: Nc1n[nH]c2nnc(-c3ccccc3)c(-c3ccccc3)c12
result: Not met

query: Report whether reported %Inh is lower than 10% (strictly) for COc1cc(OC)cc(-c2cc3cnc(N)nc3nc2NC(=O)NC(C)(C)C)c1
result: Not met

query: A record lists CN(C)c1cc(-c2ccc3c(N)n[nH]c3c2)nc(N)n1 . Is its %Inh below 10%?
result: Met

query: Could you please tell me whether %Inh recorded for CCC(=O)c1c(-c2ccccc2)c2cc(Cl)ccc2c(=O)n1Cc1ccc(C(=O)O)cc1 is less than 10%?
result: Met

query: Determine whether this compound shows %Inh lower than 10% (ties excluded): CC(C)(C)c1ccc(C(=O)Nc2cn3cc(-c4ccccc4)ccc3n2)cc1
result: Met

query: Threshold test, %Inh < 10%: C[C@@H]1CC[C@H](C(=O)NC2CCCCC2)CN1c1cc(-c2ccc3c(N)n[nH]c3c2)nc(N)n1
result: Not met

query: Answer whether the compound COC(=O)c1c(-c2ccccc2)c2cc(Br)ccc2c(=O)n1Cc1ccc(NC(=O)CCC(=O)O)cc1 has %Inh strictly less than 10%
result: Met

query: Is it true that %Inh reported for O=C(Nc1n[nH]c2cc(-c3ccccc3F)ccc12)C1CC1 is less than 10%?
result: Not met

query: API: query returns whether the compound falls strictly under 10% in %Inh. Query: COc1ccc(-c2cc3c(C)nc(N)nc3n([C@H]3CC[C@H](OCCO)CC3)c2=O)cn1
result: Not met

query: API: query returns whether the compound falls strictly under 10% in %Inh. Query: Nc1ncnc2c1ncn2-c1ccc(Cl)cc1
result: Met

###

tested on: WNK4;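 also: kd values determined as follow-up on hits from a single-replicate KINOMEscan panel screen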
Measurement Type: Kd

query: For the compound OCCCNc1nccc(-c2c(-c3cccc(C(F)(F)F)c3)nn3cc(C(F)(F)F)ccc23)n1 , what Kd is on record?
result: > 10 µM

###

Record form. Attribute: %Inh. Fill in for each entry.
system: EPHA3; settings: concentration: 1 μM, replicates: in singlicate; n = 1
One number for each entry, in %.

Some molecules with recorded %Inh:
O=c1cc(N2CCOCC2)nc2n(Cc3ccc(F)c(Cl)c3)ccn12    18
COc1ccc(-c2cc3c(C)nc(N)nc3n([C@H]3CC[C@H](O)CC3)c2=O)cn1    0
Cc1c(Cn2c(C)nn3c(=O)cc(N4CCO[C@H](C)C4)nc23)cccc1C(F)(F)F    0
CC(C)(C)c1ccc(C(=O)Nc2cn3cc(-c4ccccc4)ccc3n2)cc1    6
CN(C)c1cc(-c2ccc3c(N)n[nH]c3c2)nc(N)n1    4
Cl.c1ccc(Cn2cnc3cc(Nc4ncnc5ccccc45)ccc32)cc1    0
COC(=O)c1c(-c2ccccc2)c2cc(Br)ccc2c(=O)n1Cc1ccc(S(C)(=O)=O)cc1    0
COc1ccc(-n2cnc3c(N)ncnc32)cc1    0

Please state %Inh for every molecule in the list that follows.
1. Cc1nnc(-c2ccc3ncn(-c4ccc(S(C)=O)cc4)c3c2)o1 (stereo not shown)
2. CCC(=O)c1c(-c2ccccc2)c2cc(Cl)ccc2c(=O)n1Cc1ccc(C(=O)O)cc1
3. O=C(Nc1n[nH]c2nc(-c3ccccc3)c(Cl)cc12)C1CC1
4. Nc1ncnc2c1ncn2-c1cccc2ccccc12
5. CCn1c(-c2nonc2N)nc2ccccc21
6. COc1cc(Nc2nccc(N3CCC(NC(=O)C(C)c4ccc(Cl)cc4)C3)n2)cc(OC)c1OC (stereo not shown)

result:
[5, 7, 17, 0, 10, 0]
